Target: Purine nucleoside phosphorylase (Plasmodium falciparum, UniProt Q8T9Z7)
Sequence (Q8T9Z7 whole entry): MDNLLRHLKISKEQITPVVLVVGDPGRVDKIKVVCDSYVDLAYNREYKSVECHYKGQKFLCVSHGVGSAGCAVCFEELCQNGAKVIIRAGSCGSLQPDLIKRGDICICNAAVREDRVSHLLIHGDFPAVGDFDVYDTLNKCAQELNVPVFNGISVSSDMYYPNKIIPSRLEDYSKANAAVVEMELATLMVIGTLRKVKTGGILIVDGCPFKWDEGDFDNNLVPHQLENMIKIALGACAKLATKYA
Assay: Inhibition of Plasmodium falciparum purine nucleoside phosphorylase assessed as slow onset inhibition constant by xanthine-oxidase coupled assay
Would you mind telling me the reported pKi of each entry?
One number for each entry, as −log10 of the molar value.

>  <compound>
O=c1[nH]cnc2c(CN3C[C@@H](CO)[C@H](O)C3)c[nH]c12

>  <observation.type>
pKi

>  <reported>
5.77

$$$$
>  <compound>
O=c1[nH]cnc2c(CN3C[C@@H](O)[C@](F)(CO)C3)c[nH]c12

>  <observation.type>
pKi

>  <reported>
5.68

$$$$
>  <compound>
O=c1[nH]cnc2c(CN3C[C@H](O)[C@@](F)(CO)C3)c[nH]c12 (racemic)

>  <observation.type>
pKi

>  <reported>
7.63

$$$$

Shift focus to the following entry.
Incoming: What does the record list as pKi for O=c1[nH]cnc2c(CN3C[C@H](O)[C@@](F)(CO)C3)c[nH]c12 ?
Outgoing: 7.72
